The values you see were collected from patent US20180125934A1.

assayedSystem: T1, human PD-L1-Fc chimeric protein (human, UniProt Q9NZQ7 19-238)
T1 construct: extracellular domain; Recombinant protein; also called soluble PD-L1-Fc; not shown: Fc region of human IgG1, fused at the C-terminus
T1 sequence (Q9NZQ7 19-238, change not shown): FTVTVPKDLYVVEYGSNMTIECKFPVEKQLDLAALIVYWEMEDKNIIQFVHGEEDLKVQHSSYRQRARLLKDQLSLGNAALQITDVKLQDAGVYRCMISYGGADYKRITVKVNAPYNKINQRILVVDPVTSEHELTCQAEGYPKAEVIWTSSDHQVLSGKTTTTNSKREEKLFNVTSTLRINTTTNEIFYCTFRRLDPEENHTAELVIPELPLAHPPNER
protocolSummary: yeast display, clone sequenced from the pool after five FACS sorts on PD-L1-Fc; measured as a pool, not singly
endpointName: binding result

PD-1 variant polypeptide, clone S5.2i (receptor) NPPTFSPALLVVAEGDNATFTCSFSNTSESFVLNWYRMSPSNQTDKLAAFPEDRSQPGQDRRFRVTQLPSGRDFHMSVVRARRNDSGTYLCGAIFLAPRIQIKESLRAELRVTERRAE: binds
PD-1 variant polypeptide, clone S5.1f (receptor) NPPTFSPALLVVTEGDNATFTCSFSNTSESFVLNWYRVSPSNQTDKLAAFPEDRSRPGQDSRFRVTRLPNGRDFHMSVVGARRSDSGTYLCGAISLAPKVQIKESLRAELRVTERRAE: binds
